tested on: DU-145 prostate; assay: NCI tumour cell line growth inhibition, 48 h
MEASURE_NAME: TGI

Answered cases to consult:
[
  {
    "COMPOUND": "O=C(O)Cn1ccc(=O)c2ccc([N+](=O)[O-])cc21",
    "TGI": "> 100 µM"
  },
  {
    "COMPOUND": "O=C(NCCOCCOCCNc1cccc2c1C(=O)N(C1CCCNC1=O)C2=O)c1cc2c(o1)C(=O)c1ccccc1C2=O (centres undefined)",
    "TGI": "3.11 µM"
  },
  {
    "COMPOUND": "CCN1c2ccccc2-n2c(C)nnc2-c2c1n[nH]c2-c1ccccc1",
    "TGI": "> 100 µM"
  },
  {
    "COMPOUND": "CC(C)c1ccc2[nH]c(O)c(-c3[nH]c4ccccc4c3N=O)c2c1",
    "TGI": "20.8 µM"
  },
  {
    "COMPOUND": "Cc1ccc([C@@H]2[C@@H](C(=O)c3ccccn3)[C@H](c3ccc(C)cc3)C[C@](O)(c3ccccn3)[C@H]2C(=O)c2ccccn2)cc1",
    "TGI": "> 100 µM"
  }
]

Below are some compounds; for each one, tell me its TGI.
1. c1ccc2c(c1)OC(N1CCCC1)c1cnc(N3CCCC3)nc1-2 (centres undefined)
2. O=C(O)CCCCC(CCSCc1ccccc1)SCc1ccccc1 (centres undefined)
3. O=C1CNCCCN2CCN(CCCNCC(=O)Nc3ccc(cc3)S(=O)(=O)c3ccc(cc3)NC(=O)CNCCCN3CCN(CCCNCC(=O)Nc4ccc(cc4)S(=O)(=O)c4ccc(cc4)N1)CC3)CC2
4. COc1cnc2cc(C(=O)O)c3c([N+](=O)[O-])cccc3c2c1

1. > 100 µM
2. > 100 µM
3. > 100 µM
4. > 100 µM

Cited source: PubChem BioAssay (NCI)
